experiment: Oral PK profiles of conjugated oxymorphone in rats (released oxymorphone in plasma by LC-MS/MS); assay type: in vivo, Sprague-Dawley rats; conditions: conjugate equivalent to 2 mg/kg freebase oxymorphone, released oxymorphone in plasma
Strictly below 40 min in Tmax: Fulfilled. Otherwise: Not fulfilled.

CC(C(=O)Oc1ccc2c3c1O[C@H]1C(=O)CC[C@@]4(O)[C@@H](C2)N(C)CC[C@]314)c1cccc(C(=O)c2ccccc2)c1 (stereo partly drawn)	Fulfilled
COc1ccc(C(=O)OC2=CCC3(O)C4Cc5ccc(OC(=O)c6ccc(OC)cc6)c6c5C3(CCN4C)C2O6)cc1 (stereo not drawn)	Fulfilled
CN1CC[C@]23c4c5ccc(O)c4O[C@H]2C(OC(=O)c2ccccc2)=CC[C@@]3(O)[C@H]1C5 [Conjugate 6-Bz-OM]	Not fulfilled
CN1CC[C@]23c4c5ccc(O)c4O[C@H]2C(OC(=O)c2ccccc2O)=CC[C@@]3(O)[C@H]1C5	Not fulfilled
COc1ccc(C(=O)Oc2ccc3c4c2O[C@H]2C(=O)CC[C@@]5(O)[C@@H](C3)N(C)CC[C@]425)cc1	Not fulfilled
CC(C(=O)Oc1ccc2c3c1O[C@H]1C(=O)CC[C@@]4(O)[C@@H](C2)N(C)CC[C@]314)c1cccc(Oc2ccccc2)c1 (stereo partly drawn)	Fulfilled

Recorded values, source patent US10463660B2.
